# assay-target: T1, Recombinant Human DLL4 (R&D Systems Cat#1506-D4/CF) (human, UniProt Q9NR61 27-524)
# T1 construct: Bought recombinant human DLL4; also called delta-like protein 4; rHuman DLL4
# protocol: ELISA on coated DLL4, 100 nM Fab
measured-attribute: ELISA Signal [100 nM Fab]

-- ask Requested read-out: ELISA Signal [100 nM Fab]. Entry: Fab VH5-51_IGHD5-18*01>3_IGHJ4*01 G100K/G104T (H:KT) & V3-4_IGLJ1*01 S96E (Fab, V domains shown, Fab format: CH1 with His6 and Flag tags, and lambda CL, from the vectors; also called G100K/G104T & S96E) VH: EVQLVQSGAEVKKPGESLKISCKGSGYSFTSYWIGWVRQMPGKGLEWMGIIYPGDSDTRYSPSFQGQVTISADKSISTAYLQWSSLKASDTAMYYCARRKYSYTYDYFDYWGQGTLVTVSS VL: QTVVTQEPSFSVSPGGTVTLTCGLSSGSVSTSYYPSWYQQTPGQAPRTLIYSTNTRSSGVPDRFSGSILGNKAALTITGAQADDESDYYCVLYMGEGISYVFGTGTKVTVL
-- reply 0.02

Sourced from patent US20120316071A1
